# TARGET: T1, recombinant human IL-6 (human, UniProt P05231 30-212)
# T1 construct: Flowed in solution over the captured antibodies
# T1 sequence (P05231 30-212 limits assumed): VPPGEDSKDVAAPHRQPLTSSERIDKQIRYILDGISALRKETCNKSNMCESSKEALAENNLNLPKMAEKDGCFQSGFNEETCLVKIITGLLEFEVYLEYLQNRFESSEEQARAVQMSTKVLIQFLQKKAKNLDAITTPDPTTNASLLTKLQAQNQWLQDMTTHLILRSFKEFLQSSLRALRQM
# TEST_NAME: SPR (Biacore), purified IgG on Protein A, 37 C
Please respond with reported kon for every item in the list.
Express it in M⁻¹ s⁻¹; write the number only.

[in] Let me know recorded kon for anti-IL-6 antibody, heavy chain I51R, light chain WT (antibody, IgG1, V domains shown, Full IgG1 tested; V domains derived as in m2) VH: EVQLVESGGGLVQPGGSLRLSCAASGFTFSPFAMSWVRQAPGKGLEWVAKRSPGGSWTYYSDTVTGRFTFSLDTSKSTAYLQMNSLRAEDTAVYYCARQLWGYYALDIWGQGTLVTVSS VL: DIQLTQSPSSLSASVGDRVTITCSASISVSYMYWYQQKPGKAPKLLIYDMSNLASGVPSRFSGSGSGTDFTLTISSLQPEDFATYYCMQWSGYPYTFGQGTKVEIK , thanks.
[out] 679000

[in] Let me know recorded kon for anti-IL-6 antibody, heavy chain WT, light chain I27W (antibody, IgG1, V domains shown, Full IgG1 tested; V domains derived as in m2) VH: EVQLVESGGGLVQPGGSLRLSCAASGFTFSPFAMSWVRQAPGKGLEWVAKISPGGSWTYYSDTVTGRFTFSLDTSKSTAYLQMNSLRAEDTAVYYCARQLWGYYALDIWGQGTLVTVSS VL: DIQLTQSPSSLSASVGDRVTITCSASWSVSYMYWYQQKPGKAPKLLIYDMSNLASGVPSRFSGSGSGTDFTLTISSLQPEDFATYYCMQWSGYPYTFGQGTKVEIK , thanks.
[out] 1.06e+06

[in] Let me know recorded kon for anti-IL-6 antibody, heavy chain D62Q, light chain WT (antibody, IgG1, V domains shown, Full IgG1 tested; V domains derived as in m2) VH: EVQLVESGGGLVQPGGSLRLSCAASGFTFSPFAMSWVRQAPGKGLEWVAKISPGGSWTYYSQTVTGRFTFSLDTSKSTAYLQMNSLRAEDTAVYYCARQLWGYYALDIWGQGTLVTVSS VL: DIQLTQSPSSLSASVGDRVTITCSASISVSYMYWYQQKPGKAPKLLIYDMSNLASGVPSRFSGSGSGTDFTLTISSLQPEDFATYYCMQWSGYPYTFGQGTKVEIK , thanks.
[out] 875000

[in] Let me know recorded kon for anti-IL-6 antibody, heavy chain I108E, light chain WT (antibody, IgG1, V domains shown, Full IgG1 tested; V domains derived as in m2) VH: EVQLVESGGGLVQPGGSLRLSCAASGFTFSPFAMSWVRQAPGKGLEWVAKISPGGSWTYYSDTVTGRFTFSLDTSKSTAYLQMNSLRAEDTAVYYCARQLWGYYALDEWGQGTLVTVSS VL: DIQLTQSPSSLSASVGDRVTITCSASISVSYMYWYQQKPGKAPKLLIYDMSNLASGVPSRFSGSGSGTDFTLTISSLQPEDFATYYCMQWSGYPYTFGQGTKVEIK , thanks.
[out] 921000

[in] Let me know recorded kon for anti-IL-6 antibody, heavy chain G26S, light chain WT (antibody, IgG1, V domains shown, Full IgG1 tested; V domains derived as in m2) VH: EVQLVESGGGLVQPGGSLRLSCAASSFTFSPFAMSWVRQAPGKGLEWVAKISPGGSWTYYSDTVTGRFTFSLDTSKSTAYLQMNSLRAEDTAVYYCARQLWGYYALDIWGQGTLVTVSS VL: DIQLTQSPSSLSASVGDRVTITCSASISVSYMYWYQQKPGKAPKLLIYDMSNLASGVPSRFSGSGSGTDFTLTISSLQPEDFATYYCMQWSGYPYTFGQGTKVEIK , thanks.
[out] 842000

[in] Let me know recorded kon for anti-IL-6 antibody, heavy chain I108S, light chain WT (antibody, IgG1, V domains shown, Full IgG1 tested; V domains derived as in m2) VH: EVQLVESGGGLVQPGGSLRLSCAASGFTFSPFAMSWVRQAPGKGLEWVAKISPGGSWTYYSDTVTGRFTFSLDTSKSTAYLQMNSLRAEDTAVYYCARQLWGYYALDSWGQGTLVTVSS VL: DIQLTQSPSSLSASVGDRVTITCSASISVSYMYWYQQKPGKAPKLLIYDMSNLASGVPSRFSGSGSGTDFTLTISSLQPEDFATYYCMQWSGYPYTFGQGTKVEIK , thanks.
[out] 858000

[in] Let me know recorded kon for anti-IL-6 antibody, heavy chain WT, light chain A25S (antibody, IgG1, V domains shown, Full IgG1 tested; V domains derived as in m2) VH: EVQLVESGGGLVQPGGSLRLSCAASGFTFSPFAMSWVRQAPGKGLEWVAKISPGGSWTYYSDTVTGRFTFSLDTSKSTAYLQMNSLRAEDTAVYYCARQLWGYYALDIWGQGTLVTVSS VL: DIQLTQSPSSLSASVGDRVTITCSSSISVSYMYWYQQKPGKAPKLLIYDMSNLASGVPSRFSGSGSGTDFTLTISSLQPEDFATYYCMQWSGYPYTFGQGTKVEIK , thanks.
[out] 782000
